assay: enhancers of RGS4 function in calcium signaling – cell-based, HEK293 M3R inducible RGS4, calcium flux, primary screen (AID 463111); conditions: HEK293 M3R/inducible RGS4, carbachol calcium flux Fluo4, at 10 µM
Out of some 310,000 compounds screened, about 2,800 (0.9%) were called active.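 How the source made its calls: active means B-score of the integrated calcium signal more than 4 SD below the library mean, with starting fluorescence not abnormally high; inactive means the rest.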 The sample as a whole holds a higher share of actives than the screen did.
Return exactly one item of active, inactive

[[record]]
compound = "O=C(NCc1ccc(F)cc1)C1CCN(C(=O)Nc2ccc(F)cc2)CC1"
assignedlabel = "inactive"


Q: // param item: Cc1cccc(CC(=O)N2CCN=C2SCc2ccc([N+](=O)[O-])cc2)c1 ; yields the recorded call
Result: inactive

Q: // param item: Cc1ccc(C)c(N2CCN(C(=O)CCc3nc4ccccc4[nH]3)CC2)c1 ; yields the recorded call
Result: inactive

Q: // param item: COc1ccc(C(=O)/C=C/c2ccc(-c3ccccc3)cc2)cc1CSCC(=O)O ; yields the recorded call
Result: active

Q: // param item: COc1ccc2c(c1)C(NS(=O)(=O)OCC(Cl)(Cl)Cl)CCC2 (stereo not drawn) ; yields the recorded call
Result: inactive

Q: // param item: Cc1cc(C)cc(C(=O)N2CCN=C2SCc2ccc([N+](=O)[O-])cc2)c1 ; yields the recorded call
Result: active
